# EXPERIMENTAL SYSTEM: HDAC10 (Homo sapiens, UniProt Q969S8)
# Sequence (Q969S8 whole entry, species assumed): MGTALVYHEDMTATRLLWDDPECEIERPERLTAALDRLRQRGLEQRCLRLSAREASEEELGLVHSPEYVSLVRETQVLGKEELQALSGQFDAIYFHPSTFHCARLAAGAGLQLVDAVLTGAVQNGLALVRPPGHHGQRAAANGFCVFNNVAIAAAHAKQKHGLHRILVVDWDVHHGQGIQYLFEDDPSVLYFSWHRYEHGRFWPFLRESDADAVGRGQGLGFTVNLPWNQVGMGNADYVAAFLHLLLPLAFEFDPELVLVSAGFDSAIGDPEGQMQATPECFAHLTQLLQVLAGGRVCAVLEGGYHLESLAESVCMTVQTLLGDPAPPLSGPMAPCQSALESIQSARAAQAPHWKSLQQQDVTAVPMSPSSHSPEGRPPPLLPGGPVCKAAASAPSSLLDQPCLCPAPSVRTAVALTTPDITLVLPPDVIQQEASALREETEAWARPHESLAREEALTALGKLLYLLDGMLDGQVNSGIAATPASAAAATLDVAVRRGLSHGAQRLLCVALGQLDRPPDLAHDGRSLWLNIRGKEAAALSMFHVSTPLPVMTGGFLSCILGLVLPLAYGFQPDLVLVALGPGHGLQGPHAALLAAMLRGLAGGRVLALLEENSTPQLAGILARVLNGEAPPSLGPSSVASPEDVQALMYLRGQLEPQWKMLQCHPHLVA
# TEST METHOD NOTES: biochemical
RESULT TYPE: IC50
# output: numeric value plus its unit

Q: Record lookup: for HDAC10 (Homo sapiens, UniProt Q969S8), what IC50 belongs to CS(C)(=O)=Nc1ccc(C(=O)Nc2cc(-c3ccc(F)cc3)ccc2N)cc1 [Compound 1] ?
Ans: 22.2 nM

###

# TEST METHOD NOTES: Stability in liver microsomes
# Assay type: in vitro ADME
# CONDITION DETAILS: Mouse liver microsomes, 1 µM compound, 37 °C, NADPH regeneration system
RESULT TYPE: half-life at 1 µM
# output: numeric value plus its unit

Q: Quick one: half-life at 1 µM for CS(C)(=O)=Nc1ccc(C(=O)Nc2cc(-c3ccc(F)s3)ccc2N)cc1 ?
Ans: 201 h

Q: Quick one: half-life at 1 µM for Nc1ccc(-c2ccc(F)cc2)cc1NC(=O)c1ccc(N=S2(=O)CCCC2)cc1 ?
Ans: 2.75 h

Q: Quick one: half-life at 1 µM for CS(C)(=O)=Nc1ccc(C(=O)Nc2cc(-c3ccc(Cl)cc3)ccc2N)cc1 ?
Ans: 5.11 h

Q: Quick one: half-life at 1 µM for CS(C)(=O)=Nc1ccc(C(=O)Nc2cc(-c3ccc(F)cc3)ccc2N)cc1 ?
Ans: 16.4 h
